The values you see were collected from patent US8399681B2.

- target.system: ERR1 (also known as ERR-α or ERR-1) (Homo sapiens)
- experiment: TR-FRET assay (disruption of co-activator peptide binding)
- conditions: 6His-tagged ERR1 LBD, GST-hSRC2 co-activator polypeptide; average of 3 independent experiments
measured.attribute: EC50 (nM)

(1) COc1ccc(Cn2ncc3cc(/C=C4\SC(N5CCC[C@H](N)C5)=NC4=O)ccc32)c(C(F)(F)F)c1
(2) O=C1N=C(N2CCN(CCO)CC2)S/C1=C\c1ccc2c(cnn2Cc2ccc(Cl)cc2C(F)(F)F)c1
Which numeric EC50 is bigger, that of 1 or that of 2 ? Answer with the label corresponding to your selection.
1
(1: 9 nM, 2: 4.7 nM)

(I) COC1CCN(C2=NC(=O)/C(=C/c3ccc4c(cnn4Cc4ccc(Cl)cc4C(F)(F)F)c3)S2)CC1
(II) O=C(O)CN1CCN(C2=NC(=O)/C(=C/c3ccc4c(cnn4Cc4ccc(C(F)(F)F)cc4C(F)(F)F)c3)S2)CC1
When their EC50 values are compared, which is larger, I or II ? Answer by quoting the chosen item's label.
I

(1) CN1CCN(C2=NC(=O)/C(=C/c3ccc4c(cnn4Cc4ccc(Cl)cc4C(F)(F)F)c3)S2)CC1
(2) CN1CCN(C2=NC(=O)/C(=C/c3ccc4c(cnn4Cc4ccc(C(C)(C)O)cc4Cl)c3)S2)CC1
Please indicate which has the smaller reported EC50: 1 , or 2 . Your answer should be the label attached to the chosen record.
1
(1: 7 nM, 2: 795 nM)

====

- target.system: ERR1 (also known as ERR-α or ERR-1) (Homo sapiens, UniProt P11474)
- Sequence (P11474 193-421 limits assumed): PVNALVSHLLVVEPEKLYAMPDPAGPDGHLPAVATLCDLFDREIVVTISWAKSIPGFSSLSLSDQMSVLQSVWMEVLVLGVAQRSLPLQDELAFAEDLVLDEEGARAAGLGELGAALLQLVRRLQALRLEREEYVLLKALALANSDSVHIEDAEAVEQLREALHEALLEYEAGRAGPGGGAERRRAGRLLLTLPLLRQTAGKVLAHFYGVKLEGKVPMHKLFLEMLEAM
- experiment: TR-FRET assay (disruption of co-activator peptide binding)
- conditions: 6His-tagged ERR1 LBD, GST-hSRC2 co-activator polypeptide; average of 3 independent experiments
measured.attribute: EC50 (nM)

Recorded results for 4 molecules are shown here.
O=C1N=C(N2CCN(C(=O)C3CC3)[C@@H](CO)C2)S/C1=C\c1ccc2c(cnn2Cc2ccc(C(F)(F)F)cc2C(F)(F)F)c1 [Example 215]; 48
O=C1N=C(N2C[C@@H]3C[C@H]2CN3CCO)S/C1=C\c1ccc2c(cnn2Cc2ccc(Cl)cc2C(F)(F)F)c1 [Example 80]; 5.7
N[C@@H]1CCN(C2=NC(=O)/C(=C/c3ccc4c(cnn4Cc4ccc(Cl)cc4C(F)(F)F)c3)S2)C1 [Example 62]; 17.3
O=C1N=C(N2CC(O)C2)S/C1=C\c1ccc2c(cnn2Cc2ccc(Cl)cc2C(F)(F)F)c1 [Example 68]; 9.6

(a) CN1CCN(C2=NC(=O)/C(=C/c3ccc4c(c3)c(C#N)nn4Cc3ccc(Cl)cc3C(F)(F)F)S2)CC1(C)C [Example 222]
(b) CNC(=O)[C@H]1CN(C2=NC(=O)/C(=C/c3ccc4c(cnn4Cc4ccc(Cl)cc4C(F)(F)F)c3)S2)CCN1 [Example 226]
Hello, I am sorting some records. Could you say if a or b has the smaller EC50 value? When you have decided, please share the label of that item.
b
(b: 8 nM, a: 20 nM)

====

- target.system: ERR1 (also known as ERR-α or ERR-1) (Homo sapiens)
- experiment: TR-FRET assay (disruption of co-activator peptide binding)
- conditions: 6His-tagged ERR1 LBD, GST-hSRC2 co-activator polypeptide; average of 3 independent experiments
pEC50: −log10 of the molar value.
measured.attribute: pEC50

In the examples that follow, each entry is paired with its recorded pEC50.
O=C1N=C(N2CCN[C@@H](CO)C2)S/C1=C\c1ccc2c(c1)c(Cl)nn2Cc1ccc(C(F)(F)F)cc1C(F)(F)F [Example 186]; 8.30
O=C1N=C(N2CCO[C@H](CO)C2)S/C1=C\c1ccc2c(c1)c(I)nn2Cc1ccc(C(F)(F)F)cc1C(F)(F)F [Example 175]; 8.30
O=C1N=C(N2CCN[C@@H](CO)C2)S/C1=C\c1ccc2c(c1)c(Cl)nn2Cc1ccc(Cl)cc1C(F)(F)F [Example 187]; 7.90
CCN1CCN(C2=NC(=O)/C(=C/c3ccc4c(cnn4Cc4ccc(Cl)cc4C(F)(F)F)c3)S2)CC1 [Example 63]; 7.27
CN1CCN(C2=NC(=O)/C(=C/c3ccc4c(cnn4Cc4ccc(C(F)(F)F)cc4C(F)(F)F)c3)S2)[C@@H](CO)C1 [Example 253]; 8.30

(I) O=C1N=C(N2CCN(CCO)CC2)S/C1=C\c1ccc2c(cnn2Cc2ccc(F)cc2C(F)(F)F)c1 [Compound 4]
(II) O=C1N=C(N2C[C@H](O)C[C@H]2C(=O)O)S/C1=C\c1ccc2c(cnn2Cc2ccc(Cl)cc2C(F)(F)F)c1 [Compound 11]
Among I and II , whose measured pEC50 is the smaller figure? Pick one and reply with its label.
I

====

- target.system: ERR1 (also known as ERR-α or ERR-1) (Homo sapiens, UniProt P11474)
- experiment: TR-FRET assay (disruption of co-activator peptide binding)
- conditions: 6His-tagged ERR1 LBD, GST-hSRC2 co-activator polypeptide; average of 3 independent experiments
pEC50: −log10 of the molar value.
measured.attribute: pEC50

Consider the following illustrative entries.
O=C1N=C(N2CCN[C@@H](CO)C2)S/C1=C\c1ccc2c(cnn2Cc2ccc(C(F)(F)F)cc2C(F)(F)F)c1; 7.80
CN1CCN(C2=NC(=O)/C(=C/c3ccc4c(cnn4Cc4ccc(Cl)cc4C(F)(F)F)c3)S2)CC1(C)C; 8.15
C=C(C)c1ccc(Cn2ncc3cc(/C=C4\SC(N5CCN(C)CC5)=NC4=O)ccc32)c(C(F)(F)F)c1; 7.64

(1) CC(C)(O)c1ccc(Cn2ncc3cc(/C=C4\SC(N5CCC(C(=O)O)CC5)=NC4=O)ccc32)c(C(F)(F)F)c1
(2) CN1CCN(C2=NC(=O)/C(=C/c3ccc4c(cnn4Cc4ccc(Cl)cc4Br)c3)S2)CC1
(3) CN1CCN(C2=NC(=O)/C(=C/c3ccc4c(cnn4Cc4ccc(C(F)(F)F)cc4C(F)(F)F)c3)S2)CC1(C)C
(4) CC(C)(O)c1ccc(Cn2ncc3cc(/C=C4\SC(N5CCO[C@H](CO)C5)=NC4=O)ccc32)c(C(F)(F)F)c1
hey, can you rank those molecules up there by pEC50? biggest number first please Provide the ranking by listing each label in its place in the requested order.
2, 3, 4, 1

====

- target.system: ERR1 (also known as ERR-α or ERR-1) (Homo sapiens)
- experiment: TR-FRET assay (disruption of co-activator peptide binding)
- conditions: 6His-tagged ERR1 LBD, GST-hSRC2 co-activator polypeptide; average of 3 independent experiments
pEC50: −log10 of the molar value.
measured.attribute: pEC50

These recorded examples may help you get a feel for the data.
N#Cc1ccc(Cn2ncc3cc(/C=C4\SC(N5CCN(CCO)CC5)=NC4=O)ccc32)c(C(F)(F)F)c1 [Compound 9]; 7.24
CN1CCN(C2=NC(=O)/C(=C/c3ccc4c(cnn4Cc4ccc(O)cc4C(F)(F)F)c3)S2)CC1 [Compound 22]; 7.94
O=C1N=C(N2CCO[C@H](CO)C2)S/C1=C\c1ccc2c(cnn2Cc2ccc(C(F)(F)F)cc2C(F)(F)F)c1 [Example 140]; 7.72
COC1CN(C2=NC(=O)/C(=C/c3ccc4c(cnn4Cc4ccc(Cl)cc4C(F)(F)F)c3)S2)C1 [Example 113]; 7.85
NC(=O)C1CN(C2=NC(=O)/C(=C/c3ccc4c(cnn4Cc4ccc(C(F)(F)F)cc4C(F)(F)F)c3)S2)CCN1 (stereo not drawn) [Example 274]; 8.10
O=C1N=C(N2CCOC[C@H]2CO)S/C1=C\c1ccc2c(cnn2Cc2ccc(Cl)cc2C(F)(F)F)c1 [Example 142]; 7.70

(a) CC1(C(=O)O)CCN(C2=NC(=O)/C(=C/c3ccc4c(cnn4Cc4ccc(C(F)(F)F)cc4C(F)(F)F)c3)S2)CC1 [Example 74]
(b) C[C@@H]1CN(C2=NC(=O)/C(=C/c3ccc4c(cnn4Cc4ccc(C(F)(F)F)cc4C(F)(F)F)c3)S2)C[C@H](C)N1 [Example 238]
(c) Cc1nn(Cc2ccc(Cl)cc2C(F)(F)F)c2ccc(/C=C3\SC(N4CCC(C(=O)O)CC4)=NC3=O)cc12 [Example 276]
(d) CC(C)(O)c1ccc(Cn2ncc3cc(/C=C4\SC(N5CCN[C@@H](CO)C5)=NC4=O)ccc32)c(C(F)(F)F)c1 [Example 246]
(e) O=C1N=C(N2CC[C@H]2C(=O)O)S/C1=C\c1ccc2c(cnn2Cc2ccc(C(F)(F)F)cc2C(F)(F)F)c1 [Example 49]
List items by pEC50 in falling order. Write the labels out in the order the request specifies.
e, b, c, a, d
(e: 8.22, b: 7.96, c: 7.62, a: 7.25, d: 6.64)
